target under test: T1, full length human DLL4 (human, UniProt Q9NR61 27-685)
T1 construct: whole, on cells; also called native DLL4 expressed in HEK293 cells
T1 sequence (Q9NR61 27-685): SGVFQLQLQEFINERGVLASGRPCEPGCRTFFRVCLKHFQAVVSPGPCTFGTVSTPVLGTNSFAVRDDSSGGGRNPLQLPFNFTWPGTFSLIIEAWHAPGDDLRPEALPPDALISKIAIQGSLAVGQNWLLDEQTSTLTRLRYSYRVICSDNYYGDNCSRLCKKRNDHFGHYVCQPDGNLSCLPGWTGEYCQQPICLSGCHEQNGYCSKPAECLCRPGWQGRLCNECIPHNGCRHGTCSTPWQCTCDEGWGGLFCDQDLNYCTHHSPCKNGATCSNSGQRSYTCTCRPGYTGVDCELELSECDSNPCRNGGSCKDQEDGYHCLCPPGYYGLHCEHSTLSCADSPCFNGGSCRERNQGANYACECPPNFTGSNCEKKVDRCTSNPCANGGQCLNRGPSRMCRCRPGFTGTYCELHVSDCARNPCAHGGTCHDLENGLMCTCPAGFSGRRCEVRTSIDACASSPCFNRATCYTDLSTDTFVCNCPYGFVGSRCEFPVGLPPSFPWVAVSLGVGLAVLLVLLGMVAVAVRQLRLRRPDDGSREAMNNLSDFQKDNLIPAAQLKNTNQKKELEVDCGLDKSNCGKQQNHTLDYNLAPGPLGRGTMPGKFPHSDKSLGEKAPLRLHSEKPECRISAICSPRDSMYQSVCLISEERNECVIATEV
assay protocol: FMAT competition, purified antibody vs Alexa-647 human Notch1/Fc, 293T cells with human DLL4
Protocol: To discriminate between the purified antibodies based upon their ability to prevent the interaction between full-length recombinant DLL4 and soluble Notch1/Fc, the following assays were performed. […] After a further 3 h incubation at 4° C., the amount of bound Notch1/Fc was determined by reading the fluorescence in each well using an FMAT 8200 instrument (Applied Biosystems).
Exercise: state measured % inhibition at 0.020 nM for each of the binders provided.
One number for each entry, in %.

3A7 (antibody, IgG4, V domains shown, Fully human; also used where no isotype is printed) VH: EVQVVESGGGLVQPGGSLRLSCEASGFTFSNYWMIWVRQAPGKGLEWVASIKEDGSEKYYVDSVKGRFTISRDNAKSSLYLQMNSLRAEDTAVYYCVRDWELRGHYYYHGMDVWGQGTTVTVSS VL: DIQMTQSPSSLSASVGDRVTITCRASLDIRNDLGWFLQKPGKAPKRLIYAASSLQSGVPSRFSGSGSGTEFTLTINSLQPEDFATYYCLQHRNYPFTFGPGTKVDFK	-1
4B4 (antibody, IgG4, V domains shown, Fully human; used for IgG4 rows and where no isotype is printed; also called 4B4 IgG4; 4B4.1) VH: QVLLIQSGAEVKKPGASVQVSCKASGYTFTNYGVIWVRQAPGQGLEYMGWISAYNGNTNYAQKLQDRVTMTSDTSTTTAYMELRSLRSDDTAVYYCARELGSSFDYWGQGTLVTVSS VL: SYELTQPPSVSVSPGQTARITCSGDALPKKYAYWYQQKSGQAPVLVIYEDIKRPSGIPERFSGSSSGTMATLTISGAQVEDEADYYCFSTDNSGDHSVFGGGTKLTVL	14
21H3 (antibody, IgG4, V domains shown, Fully human; used for IgG4 rows and where no isotype is printed; also called 21H3 IgG4) VH: QVQLVQSGAEVKKPGASVKVSCKASGYTFTNYGITWVRQAPGQGPEWMGWISAYNGNTNYAQKLQDRVTVTTDTSTSTAYMELRSLRSDDTAVYYCARDRVPRIPVTTEAFDIWGQGTMVTVSS VL: QSVLTQPPSASGTPGQRVTISCSGSSSNIGSYFVYWYQQLPGTAPKLLIYRNNQRPSGVPDRFSGSESGTSASLAISGLRSEDEADYYCAAWDDSLSGHWVFGGGTRLTVL	-17

Which value of % inhibition at 0.020 nM has been reported for 1E4 (antibody, IgG2, V domains shown, Fully human; also used where no isotype is printed) VH: QVQLVESGGGVVQPGRSLRLSCAASGFTFSSYGMHWVRQAPGKGLEWVAVTWYDGSNKYYADSVKGRFTISRDNSKNTLYLQMNSLRAEDTAVYYCARENCSSTSCYYTVTTDYYGMDVWGQGTTVTVSS VL: EIVLTQSPGTLSLSPGERATLSCRASQRVSSSYLTWYQQKPGQAPRLLIYGASIRATGIPDRFSGSGSGTDFTLTITRLEPEDFAVYFCQQCYTSPITFGQGTRLDIK in the records?
-7
